- Test system: Crude diglycosidase
- testDetails: Examination of temperature in the conversion into isoflavone aglycons by diglycosidase using soybean materials
- Type: biochemical, Penicillium multicolor IAM7153
- conditionSummary: 65° C., heat treatment of enzyme no, reaction time 3 h
measuredQuantity: Decomposition efficiency of daidzin family in concentrated soybean protein (%)
Reply numerically in %, unit not repeated.

1. O=c1c(-c2ccc(O)cc2)coc2cc(O[C@@H]3O[C@H](CO)[C@@H](O)[C@H](O)[C@H]3O)ccc12 :: 1.7
2. O=c1c(-c2ccc(O)cc2)coc2cc(O)ccc12 :: 55.4

Task: If you can, please state the reported Decomposition efficiency of daidzin family in concentrated soybean protein value of `CC(=O)OC[C@H]1O[C@@H](Oc2ccc3c(=O)c(-c4ccc(O)cc4)coc3c2)[C@H](O)[C@@H](O)[C@@H]1O` .
Result: 42.9
